B1: NF2 (merlin) isoform 7, human, full length (507 aa, lacks exons 2-3 = isoform-1 residues 39-121; exon-16 C-terminus), P35240-4 (parent)
chain: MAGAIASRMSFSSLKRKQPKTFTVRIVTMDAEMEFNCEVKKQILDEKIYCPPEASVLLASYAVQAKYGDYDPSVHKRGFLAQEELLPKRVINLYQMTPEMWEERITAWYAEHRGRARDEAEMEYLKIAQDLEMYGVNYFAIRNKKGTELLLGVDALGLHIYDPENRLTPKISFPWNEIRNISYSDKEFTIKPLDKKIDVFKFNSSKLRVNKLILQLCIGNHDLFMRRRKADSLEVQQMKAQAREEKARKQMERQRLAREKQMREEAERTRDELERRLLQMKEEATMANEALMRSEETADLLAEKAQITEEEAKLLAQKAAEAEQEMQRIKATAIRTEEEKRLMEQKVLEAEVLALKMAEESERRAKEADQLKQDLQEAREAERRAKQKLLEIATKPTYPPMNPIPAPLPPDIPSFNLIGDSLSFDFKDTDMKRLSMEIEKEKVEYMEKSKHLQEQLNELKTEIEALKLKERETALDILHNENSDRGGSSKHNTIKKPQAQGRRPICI

Variants of: B1
Test: reverse yeast two-hybrid deep mutational scan (rY2H-seq): NF2 isoform 7 mutant library as bait mated with wild-type prey strains; selection on medium lacking adenine for non-interacting pairs; NextSeq paired-end sequencing; enrichment vs …
Details: with KDM1A (lysine-specific histone demethylase 1A; the table's label AOF2 is a gene synonym of KDM1A), O60341; yeast diploids after mating (RBait_S3 x RPrey_S3), 30 °C, selection for reporter genes on NB agar; human ABL2 co-expressed as the kinase-dead K35M mutant …; HIGHER = WEAKER BINDING (the opposite of display enrichments): higher = stronger loss of interaction: reverse Y2H selects yeast in which bait and prey do NOT interact (growth without adenine), so a …; hits-only table; scale: rY2H score; numbering: uniprot, sequence starts at 1
Reported enrichment values for a set of variants
measurementName: enrichment

>>> print(df.to_string())
    variantannotation  recordednumber
 0              A302T            1.57
 1              P410R            1.58
 2              K460L            4.85
 3              H159E            3.49
 4              I329L            4.07
 5              I160C            1.87
 6              E337L             1.6
 7              Q279K            6.01
 8              R166E            1.81
 9              L167E             2.5
10              R328A            1.66
